Assay target: recombinant autotaxin (Homo sapiens)
Construct: made in house; host or cells: Hi5 insect cells (baculovirus)
Assay: Autotaxin test (enzyme test), Amplex Red
Type: biochemical
Assay conditions: Autotaxin inhibition (enzyme test), TABLE 1 (A compounds); substrate LPC 75 μM
pIC50: −log10 of the molar value.
Readout type: pIC50

Use these answered entries as a reference point.
Molecule: COc1ccc(Cl)cc1NC(=O)CN1CCc2nc3cc(Br)ccc3c(C(=O)N3CCOCC3)c2C1 [Compound A42]
pIC50: 6.00 to 7.00
//
Molecule: O=C(CN1CCc2nc3ccccc3c(C(=O)N3CCOCC3)c2C1)Nc1cc(Cl)cc2ccoc12 [Compound A48]
pIC50: 6.00 to 7.00
//
Molecule: COc1ccc(C)cc1NC(=O)CN1CCc2nc3ccccc3c(C(=O)N3CCOCC3)c2C1 [Compound A12]
pIC50: 6.00 to 7.00

Returns the measured pIC50 for the input molecule. Input: COc1ccc(Br)cc1NC(=O)CN1CCc2nc3ccccc3c(C(=O)N3CCOCC3)c2C1 [Compound A13]
> 7.00

// lookup pIC50 for CC(C)Oc1ccc(Cl)cc1NC(=O)CN1CCc2nc3ccccc3c(C(=O)N3CCN(CCO)CC3)c2C1 [Compound A60]
< 6.00

###

Assay target: recombinant autotaxin (Homo sapiens, UniProt Q13822)
Construct: made in house; host or cells: Hi5 insect cells (baculovirus)
Assay: Autotaxin test (enzyme test), Amplex Red
Assay type: biochemical
Assay conditions: Autotaxin inhibition (enzyme test), TABLE 2 (B compounds); substrate LPC 75 μM
pIC50: −log10 of the molar value.
The following molecules are listed with their measured pIC50 values.

// below: answered molecules
Molecule: COc1c(F)cc(Br)cc1NC(=O)CN1CCc2nc3ccccc3c(C(=O)N3CCOCC3)c2C1
Assay target: recombinant autotaxin (Homo sapiens, UniProt Q13822)
Value reported: 6.00 to 7.00

Molecule: COc1c(F)cc(-c2ccc(N)cc2)cc1NC(=O)CN1CCc2nc3ccccc3c(C(=O)N3CCOCC3)c2C1
Assay target: recombinant autotaxin (Homo sapiens, UniProt Q13822)
Value reported: < 6.00

Molecule: COc1ccc(Cl)cc1NC(=O)CN1CCc2nc3ccccc3c(C(=O)NCCF)c2C1
Assay target: recombinant autotaxin (Homo sapiens, UniProt Q13822)
Value reported: < 6.00

Molecule: O=C(c1c2c(nc3ccccc13)CCN(Cc1ccnc(Cl)c1)C2)N1CCOCC1
Assay target: recombinant autotaxin (Homo sapiens, UniProt Q13822)
Value reported: < 6.00

Molecule: CCNC(=O)c1c2c(nc3ccccc13)CCN(Cc1nnc(-c3cc(Cl)ccc3OC)o1)C2
Assay target: recombinant autotaxin (Homo sapiens, UniProt Q13822)
Value reported: < 6.00

What measured pIC50 goes with O=C(CN1CCc2nc3ccccc3c(C(=O)N3CCN(CCO)CC3)c2C1)Nc1cc(Cl)ccc1OC(F)(F)F ?
< 6.00

Which pIC50 reading was recorded for the molecule COc1ccc(Cl)cc1/C=C/C(=O)N1CCc2nc3ccccc3c(C(=O)NC3CCN(C)CC3)c2C1 ?
< 6.00

Consider the molecule shown here: COc1ccc(Cl)cc1NC(=O)CN1CCc2nc3ccccc3c(C(=O)NC3CCOCC3)c2C1 What is its recorded pIC50?
6.00 to 7.00

Any idea what its pIC50 is? The molecule is CN1CCC(NC(=O)c2c3c(nc4ccccc24)CCN(CCC(=O)Nc2cc(Cl)ccc2N)C3)CC1
< 6.00

Reference for the values: patent US20110230471A1
